This section presents compounds with their documented IC50 values.
TESTED SYSTEM: PKC epsilon (Homo sapiens, UniProt Q02156)
Construct: purchased Invitrogen P2282
ASSAY COMMENT: Biochemical assay for PKC epsilon (fluorescence polarization, Protein Kinase C Assay Kit, Red)
CONDITION PARAMETERS: read-out: IC50 μM PKCε

>>> value_measured("NC(c1ccc(C(=O)Nc2ccncc2)cc1)C1CCCN1C(=O)C1Cc2ccccc21 (centres unmarked) [Compound 552]")
"5 to 50 µM"
>>> value_measured("NC(c1ccc(C(=O)Nc2ccncc2)cc1)C1CCCN1C(=O)Cc1ccc(F)cc1 (centres unmarked) [Compound 572]")
"5 to 50 µM"
>>> value_measured("NC(c1ccc(C(=O)Nc2ccncc2)cc1)C1CCCN1C(=O)C1(c2ccc(Cl)cc2)CCCC1 (centres unmarked) [Compound 566]")
"0.5 to 5 µM"
>>> value_measured("N[C@H](CNC(=O)C1(c2ccc(F)cc2)CCCC1)c1ccc(C(=O)Nc2ccncc2)cc1 [Compound 417]")
"< 0.05 µM"
>>> value_measured("NC(c1ccc(C(=O)Nc2ccncc2)cc1)C1CCCN1C(=O)C1CC(=O)c2ccccc21 (centres unmarked) [Compound 609]")
"0.5 to 5 µM"

Query: Given CN(CC(N)c1ccc(C(=O)Nc2ccncc2)cc1)C(=O)Cc1ccc(Cl)cc1F (centres unmarked) [Compound 502] , respond with its IC50.
Reply: 5 to 50 µM

Query: Could you please provide reported IC50 for CN(CC(N)c1ccc(C(=O)Nc2ccncc2)cc1)C(=O)C1CCSc2ccccc21 (centres unmarked) [Compound 517] ? Thanks!
Reply: 5 to 50 µM

Query: Return IC50 for the following compound: NC(c1ccc(C(=O)Nc2ccncc2)cc1)C1CCCN1C(=O)Cc1ccc(C(F)(F)F)cc1 (centres unmarked) [Compound 559]
Reply: 5 to 50 µM

----------
TESTED SYSTEM: PKC epsilon (Homo sapiens)
Construct: purchased Invitrogen P2282
Sequence (Q02156 1-737): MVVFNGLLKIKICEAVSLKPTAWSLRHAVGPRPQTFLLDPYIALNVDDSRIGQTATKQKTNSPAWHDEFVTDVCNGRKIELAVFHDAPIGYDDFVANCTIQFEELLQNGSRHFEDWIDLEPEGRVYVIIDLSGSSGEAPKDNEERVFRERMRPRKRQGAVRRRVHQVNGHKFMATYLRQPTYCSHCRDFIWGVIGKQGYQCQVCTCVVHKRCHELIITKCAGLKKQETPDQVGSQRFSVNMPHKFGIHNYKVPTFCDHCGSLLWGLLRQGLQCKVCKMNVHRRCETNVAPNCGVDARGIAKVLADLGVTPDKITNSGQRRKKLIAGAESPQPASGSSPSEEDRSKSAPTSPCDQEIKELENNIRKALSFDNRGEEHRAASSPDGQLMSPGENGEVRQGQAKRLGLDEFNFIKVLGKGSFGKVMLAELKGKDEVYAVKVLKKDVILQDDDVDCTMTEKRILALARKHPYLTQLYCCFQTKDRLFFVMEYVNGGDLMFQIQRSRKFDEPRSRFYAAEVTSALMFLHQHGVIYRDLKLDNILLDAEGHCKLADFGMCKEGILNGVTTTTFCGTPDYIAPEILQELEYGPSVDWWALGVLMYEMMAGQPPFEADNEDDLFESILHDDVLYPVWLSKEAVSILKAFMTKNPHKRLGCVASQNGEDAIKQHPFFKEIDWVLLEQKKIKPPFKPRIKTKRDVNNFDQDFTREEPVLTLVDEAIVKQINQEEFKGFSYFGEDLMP
ASSAY COMMENT: Biochemical assay for PKC epsilon (fluorescence polarization, Protein Kinase C Assay Kit, Red)
CONDITION PARAMETERS: Table 2, compounds of Formula XIII; read-out: IC50 μM PKCε
IC50 by entry:

Solved cases below.
>>> value_measured("NC(CNC(=O)c1cnnc2ccccc12)c1ccc(C(=O)Nc2ccncc2)cc1 (stereo not shown)")
"0.5 to 5 µM"
>>> value_measured("CS(=O)(=O)c1cccc(C(=O)NCC(N)c2ccc(C(=O)Nc3ccncc3)cc2)c1 (stereo not shown)")
"0.5 to 5 µM"
>>> value_measured("NC(CNC(=O)c1cccc2ccccc12)c1ccc(C(=O)Nc2ccncc2)cc1 (stereo not shown)")
"0.5 to 5 µM"
>>> value_measured("CC(C)CCC(=O)NCC(N)c1ccc(C(=O)Nc2ccncc2)cc1 (stereo not shown)")
"0.5 to 5 µM"
>>> value_measured("Nc1c(C(=O)NCC(N)c2ccc(C(=O)Nc3ccncc3)cc2)cnn1-c1ccc(F)cc1 (stereo not shown)")
"5 to 50 µM"

Query: Supply reported IC50 belonging to this molecule: CC(=NOC(C)(C)C)c1ccc(C(=O)NCC(N)c2ccc(C(=O)Nc3ccncc3)cc2)s1 (stereo not shown)
Reply: 5 to 50 µM

Query: Please give the documented IC50 of NC(CNC(=O)C1CCOc2ccccc21)c1ccc(C(=O)Nc2ccncc2)cc1 (stereo not shown)
Reply: 0.05 to 0.5 µM

Query: Return IC50 (reported value) for this molecule: COc1ccc2[nH]c(C(=O)NCC(N)c3ccc(C(=O)Nc4ccncc4)cc3)cc2c1 (stereo not shown)
Reply: 5 to 50 µM

Query: Could you please provide reported IC50 for CC(C)(C)ON=Cc1ccc(C(=O)NCC(N)c2ccc(C(=O)Nc3ccncc3)cc2)cc1 (racemic) ? Thanks!
Reply: 5 to 50 µM

Query: Give the reported value of IC50 for this record: NC(CNC(=O)C1(c2ccc(F)cc2F)CC1)c1ccc(C(=O)Nc2ccncc2)cc1 (stereo not shown)
Reply: < 0.05 µM

----------
TESTED SYSTEM: human ROCKα/ROCKII mix (Homo sapiens)
Construct: purchased Upstate Biotechnology 14-451
Sequence (O75116 11-552 limits assumed): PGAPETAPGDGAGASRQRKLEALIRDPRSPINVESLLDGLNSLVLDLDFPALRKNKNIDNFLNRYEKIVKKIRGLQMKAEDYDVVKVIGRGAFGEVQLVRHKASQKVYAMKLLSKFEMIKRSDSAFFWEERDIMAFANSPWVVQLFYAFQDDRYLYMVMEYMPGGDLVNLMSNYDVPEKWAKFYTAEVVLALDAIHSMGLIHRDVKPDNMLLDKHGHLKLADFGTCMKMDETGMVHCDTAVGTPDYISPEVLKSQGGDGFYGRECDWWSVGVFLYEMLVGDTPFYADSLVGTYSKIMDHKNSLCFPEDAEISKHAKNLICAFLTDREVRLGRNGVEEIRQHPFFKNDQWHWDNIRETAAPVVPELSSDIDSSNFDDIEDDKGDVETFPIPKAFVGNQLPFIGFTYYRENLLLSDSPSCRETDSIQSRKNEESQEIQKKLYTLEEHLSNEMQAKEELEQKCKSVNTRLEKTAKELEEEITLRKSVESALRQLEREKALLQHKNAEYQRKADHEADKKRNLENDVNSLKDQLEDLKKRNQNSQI
ASSAY COMMENT: Biochemical assay for ROCK (fluorescence polarization, ROCK IMAP Kit)
Below, each entry is listed alongside its reported IC50.

>>> value_measured("CN(CC(N)c1ccc(C(=O)Nc2ccncc2)cc1)C(=O)Cc1ccc(F)cc1Cl (centres unmarked) [Compound 498]")
"0.5 to 5 µM"
>>> value_measured("NC(c1ccc(C(=O)Nc2ccncc2)cc1)C1CCCN1C(=O)Cc1cccc(F)c1F (centres unmarked) [Compound 578]")
"0.5 to 5 µM"
>>> value_measured("N[C@@H](CC(=O)NCc1ccc(F)cc1)c1ccc(C(=O)Nc2ccncc2)cc1 [Compound 402]")
"0.05 to 0.5 µM"
>>> value_measured("NC(c1ccc(C(=O)Nc2ccncc2)cc1)C1CCCN1C(=O)C1(c2ccc(F)cc2F)CC1 (centres unmarked) [Compound 582]")
"0.5 to 5 µM"
>>> value_measured("NC(c1ccc(C(=O)Nc2ccncc2)cc1)C1CCCN1C(=O)C1(c2ccc(Cl)cc2)CC1 (centres unmarked) [Compound 564]")
"0.5 to 5 µM"

Query: Could you please provide reported IC50 for Cc1cccc(CC(=O)N(C)CC(N)c2ccc(C(=O)Nc3ccncc3)cc2)c1 (centres unmarked) [Compound 423] ? Thanks!
Reply: 0.5 to 5 µM

Query: Identify the reported IC50 for the following entry. N[C@@H](CC(=O)N[C@H]1CCCc2ccccc21)c1ccc(C(=O)Nc2ccncc2)cc1 [Compound 375]
Reply: 0.05 to 0.5 µM

Query: Name the recorded IC50 of the item NC(c1ccc(C(=O)Nc2ccncc2)cc1)C1CCCN1C(=O)C1(c2cccc(F)c2)CCCC1 (centres unmarked) [Compound 570] in your answer.
Reply: 0.5 to 5 µM

----------
TESTED SYSTEM: human ROCKα/ROCKII mix (Homo sapiens)
Construct: purchased Upstate Biotechnology 14-451
ASSAY COMMENT: Biochemical assay for ROCK (fluorescence polarization, ROCK IMAP Kit)
CONDITION PARAMETERS: Table 2, compounds of Formula XIII
METRIC NAME: IC50

Worked cases, IC50 given:
>>> value_measured("NC(CNC(=O)c1ccc2c(c1)OCO2)c1ccc(C(=O)Nc2ccncc2)cc1 (stereo not shown)")
"0.05 to 0.5 µM"
>>> value_measured("NC(CNC(=O)C1(c2ccsc2)CC1)c1ccc(C(=O)Nc2ccncc2)cc1 (stereo not shown)")
"0.05 to 0.5 µM"
>>> value_measured("Cc1ccc(C)c(CC(=O)NCC(N)c2ccc(C(=O)Nc3ccncc3)cc2)c1 (stereo not shown)")
"0.5 to 5 µM"
>>> value_measured("COc1ccc(CC(=O)NCC(N)c2ccc(C(=O)Nc3ccncc3)cc2)cc1 (stereo not shown)")
"0.05 to 0.5 µM"
>>> value_measured("CC(C)(C(=O)NCC(N)c1ccc(C(=O)Nc2ccncc2)cc1)c1ccc(Cl)c(Cl)c1 (stereo not shown)")
"0.05 to 0.5 µM"
>>> value_measured("NC(CNC(=O)C1(c2ccc(F)cc2F)CC1)c1ccc(C(=O)Nc2ccncc2)cc1 (stereo not shown)")
"0.05 to 0.5 µM"

Query: Answer with the recorded IC50 of N#CCC(=O)NCC(N)c1ccc(C(=O)Nc2ccncc2)cc1 (stereo not shown) only.
Reply: 0.05 to 0.5 µM

Query: In one line, give reported IC50 of the entry Cc1ccccc1CC(=O)NCC(N)c1ccc(C(=O)Nc2ccncc2)cc1 (stereo not shown) .
Reply: 0.05 to 0.5 µM

Query: Please report the measured IC50 for NC(CNC(=O)C1CCOc2ccc(F)cc21)c1ccc(C(=O)Nc2ccncc2)cc1 (stereo not shown)
Reply: 0.05 to 0.5 µM

Query: Input NC(CNC(=O)Cc1csc(-c2ccccc2)n1)c1ccc(C(=O)Nc2ccncc2)cc1 (stereo not shown) , output reported IC50.
Reply: 0.05 to 0.5 µM

Query: Look up IC50 of NC(CNC(=O)c1ccccn1)c1ccc(C(=O)Nc2ccncc2)cc1 (stereo not shown) and report it.
Reply: 0.5 to 5 µM

Query: Provide one value: measured IC50 of NC(CNC(=O)c1csc(-c2ccccc2)n1)c1ccc(C(=O)Nc2ccncc2)cc1 (stereo not shown)
Reply: 0.5 to 5 µM

Query: Provide only the value of recorded IC50 for COc1cccc(CC(=O)NCC(N)c2ccc(C(=O)Nc3ccncc3)cc2)c1 (stereo not shown)
Reply: 0.05 to 0.5 µM

Query: Given NC(CNC(=O)c1ccncc1)c1ccc(C(=O)Nc2ccncc2)cc1 (stereo not shown) , respond with its IC50.
Reply: 0.5 to 5 µM

Query: Please list IC50 recorded for the compound COc1ccc(CC(=O)NCC(N)c2ccc(C(=O)Nc3ccncc3)cc2)cc1F (stereo not shown)
Reply: 0.05 to 0.5 µM

Query: Please report IC50 for the following compound: NC(CNC(=O)[C@@H]1CCC(=O)N1)c1ccc(C(=O)Nc2ccncc2)cc1 (stereo partly shown)
Reply: 0.5 to 5 µM

Query: In one line, give reported IC50 of the entry CC1=C(C(=O)NCC(N)c2ccc(C(=O)Nc3ccncc3)cc2)Cc2ccccc21 (stereo not shown) .
Reply: 0.5 to 5 µM

Query: Specify measured IC50 for NC(CNC(=O)CCC1CCCCC1)c1ccc(C(=O)Nc2ccncc2)cc1 (stereo not shown) .
Reply: 0.05 to 0.5 µM

Query: Check the records and state IC50 for NC(CNC(=O)c1cccc(Br)c1)c1ccc(C(=O)Nc2ccncc2)cc1 (stereo not shown)
Reply: 0.5 to 5 µM

Query: Please list IC50 recorded for the compound NC(CNC(=O)c1ccc2[nH]nnc2c1)c1ccc(C(=O)Nc2ccncc2)cc1 (stereo not shown)
Reply: 0.5 to 5 µM

Query: Indicate its recorded IC50; the compound in question is NC(CNC(=O)c1ccccc1Oc1ccccc1)c1ccc(C(=O)Nc2ccncc2)cc1 (stereo not shown)
Reply: 0.5 to 5 µM
